# credit: patent US10479780B2

The entries below come with measured pIC50 values attached.
target: human Yes1 enzyme (Homo sapiens, UniProt P07947); construct: made in house; test: Yes1 enzyme inhibitory activity (time-resolved fluorometry, biotinylated peptide phosphorylation); format: biochemical; conditions: biotinylated peptide phosphorylation, read-out: YES_IC50
Sequence (P07947 whole entry): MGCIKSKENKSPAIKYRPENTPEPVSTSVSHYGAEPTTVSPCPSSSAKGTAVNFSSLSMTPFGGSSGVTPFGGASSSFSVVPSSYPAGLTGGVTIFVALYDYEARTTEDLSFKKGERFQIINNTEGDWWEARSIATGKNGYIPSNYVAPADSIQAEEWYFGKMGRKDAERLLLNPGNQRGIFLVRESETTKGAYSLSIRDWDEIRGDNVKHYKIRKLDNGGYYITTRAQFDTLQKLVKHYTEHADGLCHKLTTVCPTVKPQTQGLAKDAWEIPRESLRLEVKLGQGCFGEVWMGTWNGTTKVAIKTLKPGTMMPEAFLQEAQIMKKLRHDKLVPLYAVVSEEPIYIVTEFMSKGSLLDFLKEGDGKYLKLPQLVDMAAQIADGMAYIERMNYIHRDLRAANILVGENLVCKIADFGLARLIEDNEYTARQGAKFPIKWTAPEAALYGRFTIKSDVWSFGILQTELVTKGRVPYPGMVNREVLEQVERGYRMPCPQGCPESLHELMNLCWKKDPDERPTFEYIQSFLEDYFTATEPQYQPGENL
Conceptually, pIC50 converts a concentration in mol/L into minus its log10.

Use these answered entries as a reference point.
COc1cc2cc(C(=O)c3cnn(-c4cnc(Oc5ccccc5F)cc4C)c3N)[nH]c2cc1NS(=O)(=O)N1CCOCC1 [Example 4-12-001]: 8.54
Cc1cc2cc(C(=O)c3cnn(-c4cnc(Oc5ccccc5F)cc4C)c3N)[nH]c2cc1NS(=O)(=O)c1cc(C#N)cc(C(F)(F)F)c1 [Example 5-1-499]: 7.80
Cc1cc2cc(C(=O)c3cnn(-c4ccc(Oc5cccc(F)c5F)cc4C)c3N)[nH]c2cc1NS(=O)(=O)CCCF [Example 4-2-069]: 9.00
Cc1cc(Oc2cccc(Cl)c2)ncc1-n1ncc(C(=O)c2cc3cc(F)c(NS(=O)(=O)CCCF)cc3[nH]2)c1N [Example 4-2-026]: 8.44
Cc1cc(Oc2cccc(F)c2F)ccc1-n1ncc(C(=O)c2cc3cc(F)c(NS(N)(=O)=O)cc3[nH]2)c1N [Example 4-20-002]: 9.00

Problem: Please indicate pIC50 recorded for Cc1cc(Oc2ccccc2F)cc(F)c1-n1ncc(C(=O)c2cc3cc(OCC(F)F)c(N4CCOCC4)cc3[nH]2)c1N [Example 4-25-021]
Result: 8.68

Problem: Supply pIC50 value. Item: Cc1cc(Oc2c(F)cccc2F)ncc1-n1ncc(C(=O)c2cc3cc(OCC(F)F)c(N4CCC(N5CCOCC5)CC4)cc3[nH]2)c1N [Example 4-25-027]
Result: 9.10

Problem: Assign pIC50 to the following record: Cc1cc(Oc2ccccc2F)ccc1-n1ncc(C(=O)c2cc3cc(OCCN4CC5CC(C4)N5S(C)(=O)=O)c(NS(C)(=O)=O)cc3[nH]2)c1N [Example 4-24-037]
Result: 9.17

Problem: Give recorded pIC50. Cc1cc(C#N)cc(S(=O)(=O)Nc2cc3[nH]c(C(=O)c4cnn(-c5cnc(Oc6ccccc6F)cc5C)c4N)cc3cc2C)n1 [Example 5-1-481]
Result: 8.27

Problem: Specify pIC50 for Cc1cc(Oc2ccccc2F)ccc1-n1ncc(C(=O)c2cc3cc(OCC(F)F)c(N4CCC(N5CCOCC5)CC4)cc3[nH]2)c1N [Example 4-25-028] and stop.
Result: 9.03

Problem: Supply reported pIC50 belonging to this compound: Cc1cc(Oc2ccccc2F)ccc1-n1ncc(C(=O)c2cc3cc(OCC(F)F)c(N4CCOCC4)cc3[nH]2)c1N [Example 4-1-015]
Result: 9.00

Problem: Specify measured pIC50 for Cc1cc(Oc2cc(F)cc(F)c2)ncc1-n1ncc(C(=O)c2cc3cc(F)c(NS(=O)(=O)CCCF)cc3[nH]2)c1N [Example 4-2-028] .
Result: 7.82

Problem: For the compound Cc1cnc(F)c(S(=O)(=O)Nc2cc3[nH]c(C(=O)c4cnn(-c5ccc(Oc6ccccc6F)cc5C)c4N)cc3cc2C)c1 [Example 5-1-520] , give its reported pIC50.
Result: 8.57

Problem: Please report the measured pIC50 for Cc1cc(-n2ncc(C(=O)c3cc4cc(C)c(N5C(=O)NC6(CCOCC6)C5=O)cc4[nH]3)c2N)ccc1Oc1ccccc1F [Example 5-1-469]
Result: 8.05

Problem: Find the measured pIC50 of Cc1cc(Oc2ccccc2F)ccc1-n1ncc(C(=O)c2cc3cc(N4CCOCC4)c(N4CCCS4(=O)=O)cc3[nH]2)c1N [Example 4-25-006] and report it.
Result: 8.96

Problem: Fill in reported pIC50 for this entry: Cc1cc(Oc2cccc(Cl)c2)ccc1-n1ncc(C(=O)c2cc3cc(C4CCN(C(C)C)CC4)c(F)cc3[nH]2)c1N [Example 4-2-003]
Result: 8.85
